Entry source: ChEMBL document CHEMBL5518188

# experiment.summary: Metabolic stability in cryopreserved human liver microsome assessed as half life
# Format: ADME
# condition.description: cryopreserved liver microsomes
Categorize each record by its half-life using bottom = under 20 min, middle = from 20 min up to 30 min, top = 30 min and over

Look over these answered cases.
[ask] Entry `Nc1n[nH]c(=O)c2c1c(-c1ccc3c(c1)CCN3C(=O)Cc1cccc(OC(F)(F)F)c1)nn2CC(F)F` belongs to which category?
[reply] top

[ask] Lab log: `CCC1(Cn2nc(-c3ccc4c(c3)CCN4C(=O)Cc3cccc(OC(F)(F)F)c3)c3c(N)n[nH]c(=O)c32)COC1` — assign half-life category
[reply] bottom

[ask] Which bin should I file `Nc1n[nH]c(=O)c2c1c(-c1ccc3c(c1)CCN3C(=O)Cc1cccc(OC(F)(F)F)c1)cn2CC1CC1` under?
[reply] top

[ask] Please classify: `Nc1n[nH]c(=O)c2c1c(-c1ccc3c(c1)CCN3C(=O)Cc1cccc(OC(F)(F)F)c1)nn2Cc1ccccc1`
[reply] middle

[ask] Please classify: `CCCCn1nc(-c2ccc3c(c2)CCN3C(=O)Cc2cccc(OC(F)(F)F)c2)c2c(N)n[nH]c(=O)c21`
[reply] bottom

[ask] Record `Nc1n[nH]c(=O)c2c1c(-c1ccc3c(c1)CCN3C(=O)Cc1cccc(C(F)(F)F)c1)cn2CC1CC1` — which class?
[reply] top

[ask] Using the reported half-life, which band applies to `CC(C)Cn1nc(-c2ccc3c(c2)CCN3C(=O)Cc2cccc(OC(F)(F)F)c2)c2c(N)n[nH]c(=O)c21` ?
[reply] bottom

[ask] Bin this entry: `Nc1n[nH]c(=O)c2c1c(-c1ccc3c(c1)CCN3C(=O)Cc1cccc(OC(F)(F)F)c1)nn2CCC1CNC1`
[reply] top

Continuing:
[ask] Sort into band: `CC(C)n1nc(-c2ccc3c(c2)CCN3C(=O)Cc2cccc(OC(F)(F)F)c2)c2c(N)n[nH]c(=O)c21`
[reply] middle

[ask] Which category fits this record: `CCCn1nc(-c2ccc3c(c2)CCN3C(=O)Cc2cccc(OC(F)(F)F)c2)c2c(N)n[nH]c(=O)c21`
[reply] middle

[ask] Band for the recorded half-life of `COCCn1nc(-c2ccc3c(c2)CCN3C(=O)Cc2cccc(OC(F)(F)F)c2)c2c(N)n[nH]c(=O)c21` ?
[reply] bottom

[ask] Which half-life category applies to `Nc1n[nH]c(=O)c2c1c(-c1ccc3c(c1)CCN3C(=O)Cc1cccc(OC(F)(F)F)c1)nn2CC1CCCC1` here?
[reply] top

[ask] Please classify: `CC(C)=CCn1nc(-c2ccc3c(c2)CCN3C(=O)Cc2cccc(OC(F)(F)F)c2)c2c(N)n[nH]c(=O)c21`
[reply] middle

[ask] GET /class?item= `CC1(Cn2cc(-c3ccc4c(c3)CCN4C(=O)Cc3cccc(OC(F)(F)F)c3)c3c(N)n[nH]c(=O)c32)COC1`
[reply] top

[ask] Looking at `CCn1nc(-c2ccc3c(c2)CCN3C(=O)Cc2cccc(OC(F)(F)F)c2)c2c(N)n[nH]c(=O)c21` , which class would you pick?
[reply] top

====

# experiment.summary: Tmax in BALB/c mouse at 5 mg/kg, iv
# Format: ADME, organism-based
# condition.description: in vivo
measured.metric: Tmax

Please fill in: Tmax reported for `Nc1n[nH]c(=O)c2c1c(-c1ccc3c(c1)CCN3C(=O)Cc1cccc(OC(F)(F)F)c1)nn2CC1CC1` = 8.4 min

====

# experiment.summary: Cmax in BALB/c mouse at 10 mg/kg, iv
# Type: ADME, organism-based
# condition.description: in vivo
measured.metric: Cmax (ng/mL)
Please reply with the bare figure in ng/mL and do not write the unit itself.

Cmax reading for `CC1(Cn2cc(-c3ccc4c(c3)CCN4C(=O)Cc3cccc(OC(F)(F)F)c3)c3c(N)n[nH]c(=O)c32)COC1` : 8040

For the next question, use this compound.
Value of Cmax reported for the compound `Nc1n[nH]c(=O)c2c1c(-c1ccc3c(c1)CCN3C(=O)Cc1cccc(C(F)(F)F)c1)cn2CC1CC1` is 45.5

====

# experiment.summary: Tmax in BALB/c mouse at 10 mg/kg, iv
# Type: ADME, organism-based
# condition.description: in vivo
measured.metric: Tmax (h)
Provide only the numeric value, understood in h.

// recorded Tmax for `CC1(Cn2cc(-c3ccc4c(c3)CCN4C(=O)Cc3cccc(OC(F)(F)F)c3)c3c(N)n[nH]c(=O)c32)COC1` : 0.08

So, `Nc1n[nH]c(=O)c2c1c(-c1ccc3c(c1)CCN3C(=O)Cc1cccc(C(F)(F)F)c1)cn2CC1CC1` ? Its Tmax was 2

====

We begin with a simple list: items and their reported half-life.
# experiment.summary: Metabolic stability in cryopreserved human liver microsome assessed as half life
# Type: ADME
# condition.description: cryopreserved liver microsomes
The answer is to be given in min; state only the numeric part.

Field half-life (entry `CC1(Cn2nc(-c3ccc4c(c3)CCN4C(=O)Cc3cccc(OC(F)(F)F)c3)c3c(N)n[nH]c(=O)c32)CC1` ) reads 26.4

Form: compound = `Nc1n[nH]c(=O)c2c1c(-c1ccc3c(c1)CCN3C(=O)Cc1cccc(OC(F)(F)F)c1)nn2CC1CC1` ; half-life = 48.8

`CC(C)Cn1cc(-c2ccc3c(c2)CCN3C(=O)Cc2cccc(OC(F)(F)F)c2)c2c(N)n[nH]c(=O)c21` yielded half-life of 19.6

half-life reading for `CC1(Cn2nc(-c3ccc4c(c3)CCN4C(=O)Cc3cccc(OC(F)(F)F)c3)c3c(N)n[nH]c(=O)c32)COC1` : 13.2

Noted for `CC1(Cn2cc(-c3ccc4c(c3)CCN4C(=O)Cc3cccc(C(F)(F)F)c3)c3c(N)n[nH]c(=O)c32)COC1` : its half-life reads 85.6

Here is another compound to look at.
Briefly, half-life measured for `CCn1cc(-c2ccc3c(c2)CCN3C(=O)Cc2cccc(OC(F)(F)F)c2)c2c(N)n[nH]c(=O)c21` : 66.6

====

# experiment.summary: Clearance in BALB/c mouse at 10 mg/kg, po
# Type: ADME, organism-based
# condition.description: BALB/c, in vivo
measured.metric: CL/F (mL/min/kg)
State the answer as a number, implicitly in mL/min/kg.

Entry `CC1(Cn2cc(-c3ccc4c(c3)CCN4C(=O)Cc3cccc(OC(F)(F)F)c3)c3c(N)n[nH]c(=O)c32)COC1` — recorded CL/F = 17.3

====

Measured clearance of individual entries
# experiment.summary: Clearance in BALB/c mouse at 10 mg/kg, iv
# Assay type: ADME, organism-based
# condition.description: in vivo
Write the value in mL/min/kg as a bare number.

Entry under test: `Nc1n[nH]c(=O)c2c1c(-c1ccc3c(c1)CCN3C(=O)Cc1cccc(C(F)(F)F)c1)cn2CC1CC1` . Its clearance was 48.7

Now, please, on to the next compound.
The value of clearance measured for the compound `CC1(Cn2cc(-c3ccc4c(c3)CCN4C(=O)Cc3cccc(OC(F)(F)F)c3)c3c(N)n[nH]c(=O)c32)COC1` turned out to be 17.3

====

# experiment.summary: AUC (0 to t) in BALB/c mouse at 10 mg/kg, po
# Assay type: ADME, organism-based
# condition.description: BALB/c, in vivo
measured.metric: AUC(0-t) (ng·h/mL)
Express your answer in ng·h/mL, writing the number without its unit.

The recorded AUC(0-t) for entry `CC1(Cn2cc(-c3ccc4c(c3)CCN4C(=O)Cc3cccc(OC(F)(F)F)c3)c3c(N)n[nH]c(=O)c32)COC1` equals 9640

====

# experiment.summary: Cmax in BALB/c mouse at 5 mg/kg, iv
# Type: ADME, organism-based
# condition.description: in vivo
measured.metric: Cmax

`Nc1n[nH]c(=O)c2c1c(-c1ccc3c(c1)CCN3C(=O)Cc1cccc(OC(F)(F)F)c1)nn2CC1CC1` has a reported Cmax of 3290 ng/mL

====

# experiment.summary: Half life in BALB/c mouse at 5 mg/kg, iv
# Type: ADME, organism-based
# condition.description: in vivo
measured.metric: half-life

The measured half-life associated with `Nc1n[nH]c(=O)c2c1c(-c1ccc3c(c1)CCN3C(=O)Cc1cccc(OC(F)(F)F)c1)nn2CC1CC1` reads 11.7 h

====

# test.target: Mixed lineage kinase domain-like protein (Homo sapiens, UniProt Q8NB16)
# Sequence (Q8NB16 whole entry): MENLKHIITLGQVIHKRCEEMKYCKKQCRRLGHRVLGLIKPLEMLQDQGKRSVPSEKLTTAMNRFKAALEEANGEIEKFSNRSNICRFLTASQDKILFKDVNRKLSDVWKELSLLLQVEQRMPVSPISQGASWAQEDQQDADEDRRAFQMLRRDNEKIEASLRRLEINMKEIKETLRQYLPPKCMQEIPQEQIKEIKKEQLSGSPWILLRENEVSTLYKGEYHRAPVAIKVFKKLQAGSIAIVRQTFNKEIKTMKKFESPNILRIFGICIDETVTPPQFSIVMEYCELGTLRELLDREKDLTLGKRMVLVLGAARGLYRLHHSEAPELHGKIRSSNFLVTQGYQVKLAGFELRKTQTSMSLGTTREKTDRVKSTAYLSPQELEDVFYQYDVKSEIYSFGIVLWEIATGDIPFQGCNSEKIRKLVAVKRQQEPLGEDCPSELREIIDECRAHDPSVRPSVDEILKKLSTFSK
measured.metric: Kd

Record `CC1(Cn2cc(-c3ccc4c(c3)CCN4C(=O)Cc3cccc(OC(F)(F)F)c3)c3c(N)n[nH]c(=O)c32)COC1` , field Kd: > 30 µM
